Values were extracted from patent US11827628B2.

Test system: up-regulation of ICAM-1 (CD54) by IFNγ in A549 lung epithelial cells
Experiment: A549 Epithelial Line Stimulated with IFNγ (ICAM-1 surface expression, FACS)
Format: cell-based, human
Settings: Homo sapiens, A549, A549 epithelial line stimulated with IFNγ; ICAM-1 expression by FACS; read-out: IC50, Example 43
pIC50: −log10 of the molar value.
VALUE_KIND: pIC50

STRUCTURE_STRING | pIC50
Cc1ccc(Nc2ncc(C)c(Nc3ccc(OCC(=O)N(C)C)c(Cl)c3)n2)cc1S(N)(=O)=O | 5.09

a = NS(=O)(=O)c1cccc(Nc2ncc(F)c(NCCc3ccc(-n4ccnc4)cc3)n2)c1
b = Cc1cc(COc2ccc(Nc3nc(Nc4cccc(S(N)(=O)=O)c4)ncc3F)cc2)no1
Just tell me: smaller pIC50 value, a or b ? Write the label of whichever entry you select.
a
(a: 4.12, b: 4.98)
